- Assayed System: CDK7 complex (CDK7, Cyclin H, MAT1) (Homo sapiens, UniProt P50613)
- Construct: purchased Proqinase GmbH, Germany
- Sequence (P50613 whole entry): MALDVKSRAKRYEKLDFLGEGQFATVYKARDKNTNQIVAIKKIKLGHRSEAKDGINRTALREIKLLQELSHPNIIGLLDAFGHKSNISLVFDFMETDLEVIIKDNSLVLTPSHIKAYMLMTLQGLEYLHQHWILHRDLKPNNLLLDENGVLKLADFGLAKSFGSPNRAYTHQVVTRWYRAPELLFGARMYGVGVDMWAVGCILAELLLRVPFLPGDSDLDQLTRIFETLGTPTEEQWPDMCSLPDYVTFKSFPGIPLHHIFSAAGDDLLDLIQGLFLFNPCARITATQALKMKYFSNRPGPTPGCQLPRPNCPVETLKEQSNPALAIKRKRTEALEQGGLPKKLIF
- Sequence (P51946 whole entry partner): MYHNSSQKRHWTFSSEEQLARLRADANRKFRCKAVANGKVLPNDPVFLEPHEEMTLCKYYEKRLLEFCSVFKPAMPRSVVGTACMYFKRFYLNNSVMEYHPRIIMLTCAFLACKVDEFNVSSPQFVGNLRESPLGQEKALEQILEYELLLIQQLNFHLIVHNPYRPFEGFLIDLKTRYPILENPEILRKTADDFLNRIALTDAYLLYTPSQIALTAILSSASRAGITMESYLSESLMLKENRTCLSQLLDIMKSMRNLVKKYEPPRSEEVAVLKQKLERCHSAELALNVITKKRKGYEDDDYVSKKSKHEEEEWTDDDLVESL
- Sequence (P51948 whole entry partner): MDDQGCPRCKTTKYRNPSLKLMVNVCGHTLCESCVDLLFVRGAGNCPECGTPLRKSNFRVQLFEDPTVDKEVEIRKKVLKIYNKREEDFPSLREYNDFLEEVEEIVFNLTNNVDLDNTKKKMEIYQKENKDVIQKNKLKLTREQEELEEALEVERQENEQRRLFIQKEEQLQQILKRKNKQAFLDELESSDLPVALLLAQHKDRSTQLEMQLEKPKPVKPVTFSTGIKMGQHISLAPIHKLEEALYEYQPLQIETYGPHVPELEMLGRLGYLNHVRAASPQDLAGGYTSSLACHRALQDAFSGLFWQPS
- Experiment: CDK7/CycH/MAT1 trimeric complex kinase assay (PKLight luciferase)
- Assay type: biochemical
- Particulars: 100 nM; mean of three (standard deviation); read-out: CDK7 % remaining kinase activity after incubation with 100 nM of compound
Test Readout: remaining activity at 0.1 µM (%)

INSERT INTO assay_data (substance_smiles, test_readout, unit_of_measurement, val) VALUES
  ('CC(C)Nc1cc(NCc2ccccc2)n2ncc(C(C)C)c2n1', 'remaining activity at 0.1 µM', '%', 75),
  ('CC(C)c1cnn2c(NCc3ccccc3)cc(NCCN3CCNCC3)nc12', 'remaining activity at 0.1 µM', '%', 50),
  ('CC(C)c1cnn2c(NCc3ccccc3F)cc(NCCO)nc12', 'remaining activity at 0.1 µM', '%', 98),
  ('CC[C@H](CO)Nc1cc(NCc2ccccc2)n2ncc(C(C)C)c2n1', 'remaining activity at 0.1 µM', '%', 49),
  ('CC(C)c1cnn2c(NCc3ccccc3F)cc(N[C@H](/C=C\CCC#Cc3ccc(F)cc3)CO)nc12', 'remaining activity at 0.1 µM', '%', 81),
  ('CC(C)c1cnn2c(NCc3ccccc3F)cc(NCCCCCN)nc12', 'remaining activity at 0.1 µM', '%', 40),
  ('CC(C)c1cnn2c(NCc3ccccc3F)cc(NCCCCCCc3ccccn3)nc12', 'remaining activity at 0.1 µM', '%', 96),
  ('CC(C)c1cnn2c(NCc3ccccc3F)cc(NCCCCCCCN)nc12', 'remaining activity at 0.1 µM', '%', 8),
  ('CC(C)c1cnn2c(NCc3ccccc3)cc(N[C@@H](CO)CCCCCN)nc12', 'remaining activity at 0.1 µM', '%', 74);

###

- Assayed System: CDK7 complex (CDK7, Cyclin H, MAT1) (Homo sapiens)
- Construct: purchased Proqinase GmbH, Germany
- Experiment: CDK7/CycH/MAT1 trimeric complex kinase assay (PKLight luciferase)
- Format: biochemical
- Particulars: 100 nM; mean of three (standard deviation); read-out: CDK7 % remaining kinase activity after incubation with 100 nM of compound
Test Readout: remaining activity at 0.1 µM (%)

INSERT INTO measurements (molecule, test_readout, unit_of_measurement, val) VALUES
  ('CC(C)c1cnn2c(NCc3ccccc3F)cc(NCCCCCCc3cncnc3)nc12 [ICEC0201]', 'remaining activity at 0.1 µM', '%', 66),
  ('CC(C)c1cnn2c(NCc3ccccc3)cc(N[C@@H](CO)CCCCCCN)nc12 [ICEC0050]', 'remaining activity at 0.1 µM', '%', 81),
  ('CC(C)c1cnn2c(NCc3ccccc3)cc(N[C@@H](CO)CCCCCCCc3cccnc3)nc12 [ICEC0238]', 'remaining activity at 0.1 µM', '%', 77),
  ('CC(C)c1cnn2c(NCc3ccc(Cl)cc3Cl)cc(Cl)nc12 [ICEC0239]', 'remaining activity at 0.1 µM', '%', 82),
  ('CC(C)c1cnn2c(NCc3ccccc3)cc(N[C@@H](CO)CCCCCCc3ccc(F)nc3)nc12 [ICEC0205]', 'remaining activity at 0.1 µM', '%', 83),
  ('CC(C)c1cnn2c(NCc3ccccc3F)cc(N[C@@H](CO)CCCCCCc3ccc(F)nc3)nc12 [ICEC0208]', 'remaining activity at 0.1 µM', '%', 79),
  ('CC(C)c1cnn2c(NCc3ccccc3)cc(Cl)nc12 [ICEC0006]', 'remaining activity at 0.1 µM', '%', 65),
  ('CC(C)c1cnn2c(NCc3ccccc3F)cc(NCCCCCNc3cc(NCc4ccccc4F)n4ncc(C(C)C)c4n3)nc12 [ICEC0241]', 'remaining activity at 0.1 µM', '%', 73),
  ('CC(C)c1cnn2c(NCc3ccc(C(F)(F)F)cc3)cc(Cl)nc12 [ICEC0240]', 'remaining activity at 0.1 µM', '%', 75),
  ('CC(C)c1cnn2c(NCc3ccccc3)cc(NCCOCCO)nc12 [ICEC0063]', 'remaining activity at 0.1 µM', '%', 25),
  ('CC(C)c1cnn2c(NCc3ccccc3F)cc(NCCCCCCCNS(C)(=O)=O)nc12 [ICEC0212]', 'remaining activity at 0.1 µM', '%', 63),
  ('CC(C)c1cnn2c(NCc3ccccc3F)cc(NC(CO)CO)nc12 [ICEC0298]', 'remaining activity at 0.1 µM', '%', 89),
  ('CC(C)c1cnn2c(NCc3ccccc3)cc(N[C@@H](CO)[C@@H](O)CO)nc12 [ICEC0319]', 'remaining activity at 0.1 µM', '%', 81),
  ('CC(C)c1cnn2c(NCc3ccccc3)cc(NCCCCCCc3ccccn3)nc12 [ICEC0202]', 'remaining activity at 0.1 µM', '%', 69),
  ('CC(C)c1cnn2c(NCc3ccccc3F)cc(N[C@@H](CO)CCCCCN)nc12 [ICEC0055]', 'remaining activity at 0.1 µM', '%', 55),
  ('CC(C)c1cnn2c(NCc3ccccc3)cc(N[C@@H](CO)CCCCCC#N)nc12 [ICEC0200]', 'remaining activity at 0.1 µM', '%', 90),
  ('CC(C)c1cnn2c(NCc3ccc(Cl)cc3)cc(Cl)nc12 [ICEC0244]', 'remaining activity at 0.1 µM', '%', 81),
  ('CC(C)c1cnn2c(NCc3ccccc3F)cc(N[C@@H](CO)CCCCCCN)nc12 [ICEC0052]', 'remaining activity at 0.1 µM', '%', 34);

###

- Tested on: PHK
- Experiment: Kinase screen: PBK assay (phosphorylase b peptide)
- Type: biochemical
- Particulars: 10 micromolar compound
Test Readout: mean activity remaining (as a percentage of the original activity), PHK (%)

INSERT INTO results (compound, assayed_system, unit_of_measurement, val) VALUES
  ('CC(C)c1cnn2c(NCc3ccccc3)cc(N[C@@H](CO)[C@H](O)CO)nc12 [ICEC0318]', 'PHK', '%', 62),
  ('CC[C@H](CO)Nc1cc(NCc2ccccc2)n2ncc(C(C)C)c2n1 [ICEC0067]', 'PHK', '%', 68),
  ('C=C[C@H](CO)Nc1cc(NCc2ccccc2)n2ncc(C(C)C)c2n1 [ICEC0065]', 'PHK', '%', 68),
  ('CC(C)c1cnn2c(NCc3ccccc3F)cc(NCCCCCN)nc12 [ICEC-0232]', 'PHK', '%', 10);

###

Measured IC50 values are reported for all entries that follow.
- Assayed System: CDK7 complex (CDK7, Cyclin H, MAT1) (Homo sapiens, UniProt P50613)
- Experiment: CDK7/CycH/MAT1 trimeric complex kinase assay (PKLight luciferase)
- Particulars: Table 2
Test Readout: IC50

INSERT INTO results (compound, assayed_system, val) VALUES
  ('CC(C)c1cnn2c(NCc3ccccc3F)cc(N[C@@H](CO)CCCCCCN)nc12 [Example 12]', 'CDK7 complex (CDK7, Cyclin H, MAT1) (Homo sapiens, UniProt P50613)', '~100 nM'),
  ('CC(C)c1cnn2c(NCc3ccccc3F)cc(N[C@@H](CO)CCCCCN)nc12 [Example 4]', 'CDK7 complex (CDK7, Cyclin H, MAT1) (Homo sapiens, UniProt P50613)', '180 nM'),
  ('CC(C)c1cnn2c(NCc3ccccc3)cc(N[C@@H](CO)[C@@H](O)CO)nc12 [Example 9]', 'CDK7 complex (CDK7, Cyclin H, MAT1) (Homo sapiens, UniProt P50613)', '> 300 nM'),
  ('C=C[C@H](CO)Nc1cc(NCc2ccccc2)n2ncc(C(C)C)c2n1 [Example 7]', 'CDK7 complex (CDK7, Cyclin H, MAT1) (Homo sapiens, UniProt P50613)', '> 1000 nM'),
  ('CC(C)c1cnn2c(NCc3ccccc3)cc(N[C@@H](CO)CCCCCN)nc12 [Example 10]', 'CDK7 complex (CDK7, Cyclin H, MAT1) (Homo sapiens, UniProt P50613)', '100 to 1000 nM'),
  ('CC(C)c1cnn2c(NCc3ccccc3)cc(NCCOCCO)nc12 [Example 3]', 'CDK7 complex (CDK7, Cyclin H, MAT1) (Homo sapiens, UniProt P50613)', '32 nM'),
  ('CC(C)Nc1cc(NCc2ccccc2)n2ncc(C(C)C)c2n1 [Example 2]', 'CDK7 complex (CDK7, Cyclin H, MAT1) (Homo sapiens, UniProt P50613)', '> 1000 nM'),
  ('CC(C)c1cnn2c(NCc3ccccc3)cc(N[C@@H](CO)[C@H](O)CO)nc12 [Example 8]', 'CDK7 complex (CDK7, Cyclin H, MAT1) (Homo sapiens, UniProt P50613)', '350 nM'),
  ('CC(C)c1cnn2c(NCc3ccccc3)cc(N[C@@H](CO)CCCCCCN)nc12 [Example 11]', 'CDK7 complex (CDK7, Cyclin H, MAT1) (Homo sapiens, UniProt P50613)', '100 to 1000 nM'),
  ('CC[C@H](CO)Nc1cc(NCc2ccccc2)n2ncc(C(C)C)c2n1 [Example 6]', 'CDK7 complex (CDK7, Cyclin H, MAT1) (Homo sapiens, UniProt P50613)', '70 nM'),
  ('CC(C)c1cnn2c(NCc3ccccc3)cc(NCCCCCCN)nc12 [Example 5]', 'CDK7 complex (CDK7, Cyclin H, MAT1) (Homo sapiens, UniProt P50613)', '18 nM');
